# Test system: PC-3 prostate
# test-details: NCI tumour cell line growth inhibition, 48 h
assay-metric: GI50

molecule: COC1(C(=O)N[C@@H](C)c2ccc(-n3cc(F)cn3)nc2)CCC(c2nc(C)cc(Nc3cc(C)[nH]n3)n2)CC1 (stereo not given in full)
observed-measurement: 3.66 µM

molecule: CC(C)(C)C[C@H]1NC(C(=O)NCC[C@H](O)CO)[C@H](c2cccc(Cl)c2)[C@@]12C(=O)Nc1cc(Cl)c(F)cc12 (stereo not given in full)
observed-measurement: 14.9 µM

molecule: Cc1ccc(/C=C2\CN(C(=O)OC(C)(C)C)C/C(=C\c3ccc(C)cc3)C2=O)cc1
observed-measurement: 0.452 µM

molecule: COc1ccc(N2C(C)=C(C#N)C34C(=O)N(c5ccccc5)C(=O)C3=C(O)C=CC24O)cc1 (stereo not given)
observed-measurement: 17.1 µM

molecule: ClCCn1c(CCl)nc2ccc(Cl)cc21
observed-measurement: 1.58 µM

Consider the molecule CCN(CC)S(=O)(=O)c1ccc(OC)c(Nc2ncc(-c3ccccc3)o2)c1 and give its measured GI50. > 15.9 µM

One more molecule: CNC(=O)c1cncc(/C=C/c2ccccc2C)c1 > 25 µM

One more molecule: O=C1c2ccccc2-c2c1c1ccccc1c(=O)n2CCCNCCCNCCCn1c2c(c3ccccc3c1=O)C(=O)c1ccccc1-2 0.0397 µM

One more molecule: COC(=O)[C@]12CC[C@@H](C)[C@H](C)[C@@H]1C1=CC[C@@H]3[C@@]4(C)C[C@@H](OC(C)=O)[C@H](O)[C@@](C)(COC(C)=O)[C@@H]4[C@H](O)C[C@@]3(C)[C@]1(C)CC2 1.86 µM

One more molecule: COc1ccc(C(=O)/C=C/c2ccc(/C=C/c3cc(OC)c(OC)c(OC)c3)cc2)cc1 5.65 µM

###

# Tested on: XF 498 CNS
# test-details: NCI tumour cell line growth inhibition, 48 h
assay-metric: TGI

Known results for compounds:
compound: CCCc1[nH]nc(CCC(=O)N(Cc2ccccc2)Cc2ccccc2)c1CC
assay-target: XF 498 CNS
observed-measurement: > 100 µM
//
compound: COc1ccccc1NC(=O)CC(=O)N1N=C(C)C(N=Nc2ccc(S(N)(=O)=O)cc2)C1=O (stereo not given)
assay-target: XF 498 CNS
observed-measurement: > 100 µM
//
compound: CCC(C(=O)O)c1ccc(OCc2ccccc2)cc1 (stereo not given)
assay-target: XF 498 CNS
observed-measurement: > 100 µM
//
compound: C=C1C(=O)O[C@H]2[C@H]1[C@H](OC(=O)/C(C)=C\C)CC(=C)[C@@H]1[C@H](O)[C@H]3O[C@@]3(C)[C@@]12O
assay-target: XF 498 CNS
observed-measurement: > 100 µM
//
compound: CCCCCCCCCCCCOC(=S)NCCCC
assay-target: XF 498 CNS
observed-measurement: 31.9 µM
//
compound: CC1=NCCc2c1[nH]c1cc(O)ccc21
assay-target: XF 498 CNS
observed-measurement: > 100 µM
//
compound: c1cc(-c2cn3ccsc3n2)ccn1
assay-target: XF 498 CNS
observed-measurement: > 100 µM
//
compound: CCOC(=O)C1=C(C)N(Cc2ccccc2)C(C)=C(C(=O)OCC)C1c1ccccc1O
assay-target: XF 498 CNS
observed-measurement: 51.3 µM

Report TGI for CCCCCCCCCc1cc(=O)c2ccc(OCc3ccccc3)cc2o1 tested on XF 498 CNS. > 100 µM

One more compound: COc1cc(/C=C/C(=O)O)ccc1C(=O)O/C=C/c1ccccc1 > 100 µM
